System: SW-620
Assay: NCI tumour cell line growth inhibition, 48 h
Active and inactive are the calls of the source. Rule as the data show it: active = GI50 up to about 1.1 µM and inactive = higher.
Endpoint: GI50

Would you please look over these solved cases?
GI50 for S=C1NCCN1C(=S)NC1CCCCC1 ?
46 µM (inactive)

Subsequent entry: CC(=O)OC1C(Oc2c(C)cc3c(c2O)[C@@H](C)CC[C@@H]3[C@@H](C)CCC=C(C)C)OCC(O)C1O (stereo not given in full)
18.7 µM (inactive)

Subsequent entry: COC(=O)C(Cc1ccc2c(c1)OCO2)(NC(=O)c1ccccc1)P(=O)(OC)OC (stereo not given)
> 100 µM (inactive)

Subsequent entry: c1ccc2c[n+](Cc3ccnc4ccccc34)ccc2c1
> 100 µM (inactive)

Turning now to a further compound:
GI50 for Cc1cccc(C(C)(C)C)c1NC(=O)CCc1n[nH]c(=S)o1 ?
15.9 µM (inactive)
